# Test system: COLO 205 colon
# Assay method text: NCI-60 one-dose screen, 48 h (100 = growth as untreated, 0 = no growth, -100 = all killed)
# Cond: 10 µM unless noted
This is part of a sample that, as a whole, favours compounds with a hit. Of some 83,000 tested, about 20% had one in any assay.
Below, each entry is listed alongside its reported growth.
Readout name: growth (%)

CC(=O)OCC1OC(OCC2OC(OC(C)=O)C(OC(C)=O)C(OC(C)=O)C2OC(C)=O)C(OC(C)=O)C(OC(C)=O)C1OC(C)=O (centres undefined)    107
COc1ncc(-c2ccc3ncnc(Nc4cccc(Cl)c4)c3c2)cc1N(S(C)(=O)=O)S(C)(=O)=O    77.1
COc1ccc(NC(=S)/N=c2\oc3c(OC)cccc3cc2-c2cc3ccccc3[nH]2)cc1    101
O=C1CCCCN1CCCCC#Cc1ccccc1C#Cc1ccc([N+](=O)[O-])cc1    45.8

###

# Test system: A549/ATCC NSCLC
# Assay method text: NCI-60 one-dose screen, 48 h (100 = growth as untreated, 0 = no growth, -100 = all killed)
# Cond: 10 µM unless noted
Compounds without any hit were thinned out: in the full panel of roughly 83,000, 20% have a hit.
Label Yes for high-side growth (at or above 90%) and No for low-side growth (below it).

Cc1ccc2c(c1)C(C)Cc1c(ncnc1-n1cnc3ccccc31)N2C (stereo not given)    No
CCCCCCCCCCCCNC(=S)N/N=C/c1ccc(Cl)c(Cl)c1    Yes
C#CCN1C(=O)/C(=c2\sc3n(c2=O)C2C(NN=3)N(CC)C(=O)N2CC)c2ccccc21 (stereo not given)    No
CCN1C(=O)N(CC)C2C1NN=c1s/c(=C3\C(=O)N(C4CCCC4)c4ccccc43)c(=O)n12 (stereo not given)    No

###

# System: UO-31 renal
# Assay method text: NCI-60 one-dose screen, 48 h
# Cond: 10 µM unless noted
About 83,000 compounds went through this panel and 20% of them were active in at least one assay; those are over-represented in the sample as a whole. Activity calls are given as the source filed them. The calls were made as follows: active = growth percent below 10; inactive = the rest.
Labels: active, inactive

CCNC(=O)CCCCC(=O)c1c(C)[nH]c(/C=C2\N=C(c3ccc[nH]3)C=C2OC)c1C    active
CCC1=C[C@@H]2CN(C1)Cc1c([nH]c3ccccc13)[C@@](C(=O)OC)(c1cc3c(cc1OC)N(C=O)[C@H]1[C@@](O)(C(=O)OC)[C@H](OC(C)=O)[C@]4(CC)[C@@H]5C[C@@H]5CN5CC[C@]31[C@@H]54)C2    inactive
O=C1C2=C(C(=O)c3c(O)ccc(O)c31)N(c1cccnc1)Cc1ccccc1O2    active
COc1cc(C2CC(c3c(C)[n+]([O-])c4ccccc4[n+]3[O-])=NN2)cc(OC)c1OC (stereo not drawn)    inactive
COc1cccc2cc(-c3cc4ccccc4[nH]3)/c(=N/C(=S)Nc3ccccc3)oc12    inactive
COc1cc2c3c(c(=O)oc2cc1OS(=O)(=O)c1ccc(C(F)(F)F)cc1)CCCCC3    inactive
CC/C=C\C/C=C\C[C@H](O)C/C=C1/C(=O)C=C[C@H]1C/C=C\CCC(=O)OC    inactive
COC(=O)CCCCN=Cc1c(O)c(O)c(C(C)C)c2cc(C)c(-c3c(C)cc4c(C(C)C)c(O)c(O)c(C=NCCCCC(=O)OC)c4c3O)c(O)c12    inactive

###

# System: A549/ATCC NSCLC
# Assay method text: NCI-60 one-dose screen, 48 h
# Cond: 10 µM unless noted
Compounds without any hit were thinned out: in the full panel of roughly 83,000, 20% have a hit. Calls of active or inactive are those of the source. How the source made its calls: active means growth percent below 10; inactive means the rest.
Outcomes: active, inactive

O=C(Nc1ccc(OCc2nnc(-c3ccc(Cl)cc3)o2)c(F)c1)Nc1ccc(Cl)c(Cl)c1    inactive
CC(Br)C(Br)c1cc2c(cc1Br)OCO2 (stereo not drawn)    inactive
O=C(C[N+](=O)[O-])c1ccc(Cl)cc1    inactive
Cc1cccc(-n2c(C)nc3ccc(NC(=O)NCCCl)cc3c2=O)c1    inactive
NC(=O)c1cccc(N2Cc3ccccc3OC3=C2C(=O)c2c(O)ccc(O)c2C3=O)c1    inactive
Cc1cnc(NC(=O)C(Cc2ccccc2)NC(=O)c2ccccc2)s1 (stereo not drawn)    inactive
c1ccc([P+](CCC[P+](c2ccccc2)(c2ccccc2)c2ccccc2)(c2ccccc2)c2ccccc2)cc1    inactive
Clc1nc2ccccc2nc1CI    inactive
Cc1cc(C(=O)O)c(N)c(C)n1    inactive
O=C(Nc1ccc(Cl)cc1)c1cc(-c2ccc(F)cc2)c2sc(=O)[nH]c2n1    inactive
Clc1ccc(-c2nc(-c3ccco3)cn3ccnc23)cc1    active
COc1ncc(-c2ccc3ncnc(Nc4cccc(Cl)c4)c3c2)cc1N(S(C)(=O)=O)S(C)(=O)=O    inactive
COc1ccc(-c2cn[nH]c2-c2cc(OC)c3c(c2)OCO3)cc1    inactive

###

# System: NCI-H226 lung
# Assay method text: NCI-60 one-dose screen, 48 h (100 = growth as untreated, 0 = no growth, -100 = all killed)
# Cond: 10 µM unless noted
About 83,000 compounds went through this panel and 20% of them were active in at least one assay; those are over-represented in the sample as a whole. Calls of active or inactive are those of the source. The calls were made as follows: active = growth percent below 10; inactive = the rest.
Readout name: growth

CC(C)(C)c1cc(-c2nc3ccc(N4CCN(CCO)CC4)cc3[nH]2)cc(C(C)(C)C)c1O    99% (inactive)
COc1cc(C(=O)CCCl)ccc1O    88.9% (inactive)
OCc1c(-c2ccccc2)nc2sccn12    106% (inactive)
COc1ccc(-c2nnc(COc3ccc(NC(=O)Nc4ccc(Cl)c(C(F)(F)F)c4)cc3F)o2)cc1    33.5% (inactive)
NC(=O)NC(=O)/C=C/C(=O)OCCCl    98.2% (inactive)
COc1cc(OC)c(C(=O)/C=C/c2cccc(C(F)(F)F)c2)c(OC)c1    25.1% (inactive)
CC/C=C\C[C@H](O)C/C=C1/C(=O)C(Cl)=C[C@@H]1C/C=C\CCCC(=O)OC    -10.9% (active)
COc1ccc(C2=CC(c3ccc(Oc4ccnc5cc(Cl)ccc45)c(OC)c3)c3c(nc(OC)[nH]c3=O)N2)cc1 (stereo not given)    88.9% (inactive)
CC(Cc1nnc(SCC(=O)Nc2ccc(I)cc2)n1N)c1ccccc1 (stereo not given)    87.2% (inactive)
COc1cc(/C=C\c2cc(OC)c(OC)c(OC)c2)cc(N/C=C\C(=O)c2c[nH]c3ccccc23)c1OC    65.5% (inactive)
CCC1CCc2nc3sc(C(=O)Nc4cccc(C)c4)c(N)c3cc2C1 (stereo not given)    96% (inactive)
CC(C)CCC[C@@H](C)[C@H]1CC[C@H]2[C@@H]3CC[C@H]4C/C(=N/O)CC[C@]4(C)[C@H]3CC[C@]12C    92.1% (inactive)
C=CCOc1ccc(/C(O)=C2\C(=O)C(=O)N(c3nccs3)C2c2ccccc2F)cc1 (stereo not given)    102% (inactive)
O=Nc1c(-c2c(O)[nH]c3ccc([N+](=O)[O-])cc23)[nH]c2ccc(O)cc12    -4.7% (active)
Cc1oc2nc[nH]c(=O)c2c1C(=O)/C=C/c1ccc(Cl)cc1Cl    107% (inactive)
COc1ccc(-n2cnc3c(sc4ncc(Cl)cc43)c2=O)cc1    97.8% (inactive)
Oc1ccc(Cl)cc1-c1cc(-c2ccc(Cl)cc2)n[nH]1    64.4% (inactive)
COc1ccc(-c2nnc(COc3ccc(NS(=O)(=O)c4ccc(OC)cc4)cc3F)o2)cc1    57.9% (inactive)
CC(=O)Nc1ccc(S(=O)(=O)NC(CCC(=O)Nc2ccc(Cl)cc2)C(=O)O)cc1 (stereo not given)    96.8% (inactive)
O=S(=O)(NCCCNc1cc(-c2cn(-c3ccccc3)nc2-c2cccc(O)c2)ccn1)c1ccc(C(F)(F)F)cc1    49.6% (inactive)

###

# System: OVCAR-5 ovarian
# Assay method text: NCI-60 one-dose screen, 48 h (100 = growth as untreated, 0 = no growth, -100 = all killed)
# Cond: 10 µM unless noted
# Method: Growth inhibition of the OVCAR-5 human tumor cell line is measured as a screen for anti-cancer activity. Cells are grown in 96 well plates and exposed to the test compound for 48 hours. Compounds are tested at a single concentration, which is 10^-5 M for most compounds. The reported endpoint is percent growth (GI% or GIPRCNT), where numbers from 0 - 100% represent growth inhibition, and numbers from -100% - 0 represent cell death. For example, a value of 40 represents 60% growth inhibition. […]
This is part of a sample that, as a whole, favours compounds with a hit. Of some 83,000 tested, about 20% had one in any assay.
Decide by growth: equal to or exceeding 90% means yes (1), less means no (0).

O=C(Cc1c(F)cccc1Cl)Nc1ccc(S(=O)(=O)Nc2ncccn2)cc1    yes (1)
COc1cc(C(=O)CCCl)ccc1O    yes (1)
O=S(=O)(NCCCNc1cc(-c2cn(-c3ccccc3)nc2-c2cccc(O)c2)ccn1)c1ccc(C(F)(F)F)cc1    no (0)
N#Cc1ncc(-c2ccc(F)c(F)c2F)c(NC2CCCCCC2)n1    yes (1)
COc1ccc(S(=O)(=O)NCCNc2nccc(-c3c(-c4ccccc4)nc4sccn34)n2)cc1    no (0)
COc1cccc(-c2nc3sccn3c2-c2ccnc(NCCCNS(=O)(=O)c3ccc(F)cc3)n2)c1    yes (1)
Cc1ccc(C(=O)c2sc3nc4c(cc3c2N)CCCC4)c(C)c1    no (0)
C=CCOc1ccc(/C(O)=C2\C(=O)C(=O)N(c3nccs3)C2c2ccccc2F)cc1 (configuration not stated)    yes (1)
O=C(NNC(=S)Nc1ccccc1)c1ccccn1    no (0)
O=S(=O)(c1ccccc1)n1ccc(-c2ccc3c(c2)CCO3)n1    yes (1)
CNC(=O)Cc1nc(-c2cccc(NS(=O)(=O)c3c(F)cccc3F)c2F)c(-c2ccnc(Nc3ccccc3)n2)s1    no (0)
COc1cccc(/C=C2\SC(N3CCN(c4ccccn4)CC3)=NC2=O)c1    yes (1)
CCN(C(=O)c1cc2ncccc2[nH]1)[C@H]1CCC[C@@H](NCc2cccc(F)c2)C1    no (0)
Nc1ccccc1C#C/C=C\C#Cc1cccc(O)c1    no (0)
CCSc1nnc(NC(=O)Cc2ccc(Cl)cc2)s1    yes (1)
COc1ccc(NC(=O)CSc2nc3ccccc3c(=O)n2-c2ccccc2C(F)(F)F)c(OC)c1OC    yes (1)
O=C1NC(Cc2c[nH]c3ccccc23)C(=O)N1Cc1ccc(Cl)cc1 (configuration not stated)    yes (1)
COc1cc(NC(=O)CSc2nc3ccc(C)cc3c(=O)n2-c2ccccc2)cc(OC)c1OC    yes (1)
CC(C)N(Cc1ccc(CN(C(=O)CCl)C(C)C)cc1)C(=O)CCl    no (0)
Cc1cc(Nc2nc(C(=O)Nc3ccccc3)nc3ccccc23)n[nH]1    no (0)
CCN1C(=O)N(CC)C2C1NN=c1s/c(=C3\C(=O)N(C4CCCC4)c4ccccc43)c(=O)n12 (configuration not stated)    no (0)
COC(=O)c1ccc(C)cc1    yes (1)
Clc1ccc([I+]c2ccc(Cl)cc2Cl)c(Cl)c1    no (0)
COc1ccc2c(c1)NC(=O)CN2c1nc(NC2CC2)nc2ccccc12    no (0)
O=[N+]([O-])c1c(S(=O)(=O)O)cc2cc(S(=O)(=O)O)ccc2c1[N+](=O)[O-]    yes (1)
CCN(CC)CCCC(C)N=c1cc(Nc2cc(=NC(C)CCCN(CC)CC)c3cc(OC)ccc3o2)oc2ccc(OC)cc12 (configuration not stated)    no (0)
COc1cc2nc(N3CCC[C@@H](NC4=CC(=O)c5ccccc5C4=O)C3)nc(N)c2cc1OC    yes (1)
Nc1c(C(=O)Nc2ccccc2)sc2nc3c(cc12)CN(Cc1ccccc1)CC3    no (0)
CN=S(=O)(NC(=O)c1ccc(Cl)cc1Cl)c1ccc(Br)s1 (configuration not stated)    yes (1)
O=C1CCCCC=C1C[N+](=O)[O-]    yes (1)
CC(C)(C)c1cn2cccc(C(=O)N3CCN(CC(=O)Nc4ccc(Cl)cc4C(=O)c4ccccc4Cl)CC3)c2n1    no (0)
COc1ccc(-c2cn[nH]c2-c2cc(OC)c3c(c2)OCO3)cc1    no (0)
O=C(Nc1ccc(I)cc1)c1cccc([N+](=O)[O-])c1O    no (0)
COc1ccc2c(c1)C=CC(C#N)N2C(=O)c1ccccc1 (configuration not stated)    no (0)
CCN(Cc1ccccc1)c1ccc(SC#N)cc1    yes (1)
Nc1c(C(=O)Nc2cccc(C(F)(F)F)c2)sc2nc3c(cc12)CCCCC3    no (0)
COc1cccc(-c2nc3sccn3c2-c2ccnc(NCCNS(=O)(=O)c3ccccc3)n2)c1    yes (1)
C/C(=N\NC(=O)CC#N)c1cc2cc(Cl)ccc2o1    yes (1)
COc1cc(-c2csc(NC(=O)c3cc(C(F)(F)F)cc(C(F)(F)F)c3)n2)cc(OC)c1OC    no (0)
